The origin of these recorded values is PubChem BioAssay AID1259412.

- Test system: alternative oxidase (AOX)
- testDescription: AOX inhibitors, oxygen consumption, profiling panel (AID 1259412)
- measurementContext: AOX-dependent respiration, at 500 µM, stronger effect = lower value
Activity calls are given as the source filed them. How the calls were made is not given here.
I'd appreciate it if you could supply O2 uptake (% of control) values for the items below.

Query: Give reported O2 uptake (% of control) for "N#Cc1cccc(C(=O)Nc2cccc(Br)c2)c1" (alternative oxidase (AOX))
Reply: 21.3% (active)

Query: Report its O2 uptake (% of control) with alternative oxidase (AOX) as the test system: "Cc1cccc(C(=O)Nc2cccc(C(F)(F)F)c2)c1"
Reply: 15.2% (active)

Query: // fetch O2 uptake (% of control) for "O=C(Nc1cccc(Br)c1)c1cccc(F)c1" ; system: alternative oxidase (AOX)
Reply: 35.1% (active)

Query: Give O2 uptake (% of control) for "COc1cccc(C(=O)Nc2cccc(Cl)c2)c1" tested on alternative oxidase (AOX).
Reply: 33.2% (active)

Query: Look up alternative oxidase (AOX) data: O2 uptake (% of control) of "COc1cccc(C(=O)NCc2ccc3c(c2)OCO3)c1" , then report it.
Reply: 36.4% (active)

Query: // fetch O2 uptake (% of control) for "Cc1cccc(C(=O)Nc2ccc(N3CCOCC3)cc2)c1" ; system: alternative oxidase (AOX)
Reply: 84.8% (inactive)

Query: Tell me O2 uptake (% of control) of "Cc1cccc(C(=O)Nc2cccc(F)c2)c1" when tested on alternative oxidase (AOX).
Reply: 30.7% (active)

Query: Provide O2 uptake (% of control), tested on alternative oxidase (AOX), for "O=C(Nc1cccc(I)c1)c1ccccc1" .
Reply: 17.3% (active)
